Tested on: Tetranychus urticae
assay explanation: Acaricidal activity against Tetranychus urticae (two-spotted spider mite) in kidney bean leaf assessed as mortality at 500 ppm at 25 degC measured after 5 days
Assay type: functional
experimental setup: 120 h
measured quantity: mortality at 500 ppm (%)
API: value field is a number in %; no unit string.

{"smiles record": "CCCOc1ccc(CNC(=O)c2c(Cl)c(CC)nn2C)cc1", "result units": "%", "measurement": 100}
{"smiles record": "CCCc1ccc(CNC(=O)c2c(Cl)c(CC)nn2C)cc1", "result units": "%", "measurement": 100}
{"smiles record": "Cc1nn(C)c(C(=O)NC(C)(C)C)c1Br", "result units": "%", "measurement": 0}

Task: Record lookup: for Tetranychus urticae, what mortality at 500 ppm belongs to `CCc1nn(C)c(C(=O)NCc2ccc(C(F)(F)F)cc2)c1Cl` ?
Output: 100

---

Tested on: Tetranychus urticae
assay explanation: Acaricidal activity against Tetranychus urticae (two-spotted spider mite) in kidney bean leaf assessed as mortality at 500 ppm at 25 degC measured after 5 days
Format: functional
experimental setup: 120 h
Quick reference for mortality at 500 ppm among some compounds
API: value field is a number in %; no unit string.

{"compound": "CCc1nn(C)c(C(=O)NCc2ccc(OCC(F)(F)F)cc2)c1Cl", "mortality at 500 ppm (%)": 80}

Switching to the query record.
Task: Record lookup: for Tetranychus urticae, what mortality at 500 ppm belongs to `CCc1nn(C)c(C(=O)NCc2ccc(OC(C)C)cc2)c1Cl` ?
Output: 80

---

System: Tetranychus urticae
assay explanation: Acaricidal activity against Tetranychus urticae (two-spotted spider mite) in kidney bean leaf assessed as mortality at 500 ppm at 25 degC measured after 5 days
Format: functional
experimental setup: 120 h
Quick reference for mortality at 500 ppm among some compounds
API: value field is a number in %; no unit string.

{"smiles record": "CCCCc1ccc(CNC(=O)c2c(Cl)c(CC)nn2C)cc1", "measured quantity": "mortality at 500 ppm", "result units": "%", "measurement": 100}
{"smiles record": "CCc1nn(C)c(C(=O)NCc2ccc(C3CC3)cc2)c1Cl", "measured quantity": "mortality at 500 ppm", "result units": "%", "measurement": 30}
{"smiles record": "CCc1nn(C)c(C(=O)NCc2ccc(OC(F)F)cc2)c1Cl", "measured quantity": "mortality at 500 ppm", "result units": "%", "measurement": 80}
{"smiles record": "Cc1nn(C)c(C(=O)NC(c2ccccc2)c2ccccc2)c1Br", "measured quantity": "mortality at 500 ppm", "result units": "%", "measurement": 0}

Task: // returns reported mortality at 500 ppm for input `CCCCOc1ccc(CNC(=O)c2c(Cl)c(CC)nn2C)cc1`
Output: 100

---

Tested on: Tetranychus urticae
assay explanation: Acaricidal activity against Tetranychus urticae (two-spotted spider mite) in kidney bean leaf assessed as mortality at 500 ppm at 25 degC measured after 5 days
Assay type: functional
experimental setup: 120 h
Quick reference for mortality at 500 ppm among some molecules
API: value field is a number in %; no unit string.

Example results:
{"smiles record": "Cc1nn(C)c(C(=O)N(C)Cc2ccc(C(C)(C)C)cc2)c1Cl", "measured quantity": "mortality at 500 ppm", "measurement": 0}
{"smiles record": "CCCNc1ccc(CNC(=O)c2c(Cl)c(CC)nn2C)cc1", "measured quantity": "mortality at 500 ppm", "measurement": 80}

Task: // returns reported mortality at 500 ppm for input `Cc1nn(C(F)F)c(C(=O)NCc2ccc(C(C)(C)C)cc2)c1Cl`
Output: 0

Task: // returns reported mortality at 500 ppm for input `Cc1nn(C)c(C(=O)NCc2ccc(C(C)(C)C)cc2)c1N`
Output: 0

---

System: Tetranychus urticae
assay explanation: Acaricidal activity against Tetranychus urticae (two-spotted spider mite) in kidney bean leaf assessed as mortality at 500 ppm at 25 degC measured after 5 days
Type: functional
experimental setup: 120 h
measured quantity: mortality at 500 ppm (%)
API: value field is a number in %; no unit string.

{"compound": "Cc1nn(C)c(C(=O)NC(C)c2ccccc2)c1Br (configuration not stated)", "result units": "%", "mortality at 500 ppm": 0}
{"compound": "CC(C)Cc1nn(C)c(C(=O)NCc2ccc(C(C)(C)C)cc2)c1Cl", "result units": "%", "mortality at 500 ppm": 0}

Task: // returns reported mortality at 500 ppm for input CCc1nn(C)c(C(=O)NCc2ccc(C(C)CC)cc2)c1Cl (configuration not stated)
Output: 100

Task: // returns reported mortality at 500 ppm for input `CCc1ccc(CNC(=O)c2c(Cl)c(CC)nn2C)cc1`
Output: 30

Task: // returns reported mortality at 500 ppm for input `CCc1nn(C)c(C(=O)NCc2ccc(C(C)(C)C)cc2)c1Cl`
Output: 100

Task: // returns reported mortality at 500 ppm for input `CCc1nn(C)c(C(=O)NCc2ccc(S(C)(=O)=O)cc2)c1Cl`
Output: 0

Task: // returns reported mortality at 500 ppm for input `CCc1nn(C)c(C(=O)NCc2ccc(Br)cc2)c1Cl`
Output: 0

Task: // returns reported mortality at 500 ppm for input `Cc1nn(-c2ccccc2)c(C(=O)NCc2ccc(C(C)(C)C)cc2)c1Cl`
Output: 0

Task: // returns reported mortality at 500 ppm for input `Cc1n[nH]c(C(=O)NCc2ccc(C(C)(C)C)cc2)c1Cl`
Output: 0

Task: // returns reported mortality at 500 ppm for input `Cc1nn(C)c(C(=O)NCc2ccc(C(C)(C)C)cc2)c1Br`
Output: 100

Task: // returns reported mortality at 500 ppm for input Cc1nn(C)c(C(=O)NC(c2ccccc2)C(C)C)c1Cl (configuration not stated)
Output: 0

Task: // returns reported mortality at 500 ppm for input `CCCCn1nc(C)c(Cl)c1C(=O)NCc1ccc(C(C)(C)C)cc1`
Output: 0
